tested on: PDK1 kinase activity (phospho-T308-PKB) in PC3 cells; experiment: Cellular testing of PDK1 kinase inhibitors in PC3 cells (Luminex, phospho-T308-PKB); type: cell-based; settings: Homo sapiens, PC-3, 0.5 h, 30 min incubation, serum-free, read-out: IC50 PC3 cells [P-PKB T308]
pIC50: −log10 of the molar value.
Param threshold (6) applies to pIC50; output Y when value >= threshold, N when value < threshold.

As a guide, the following entries are already answered.
>>> assigned_category("CCC(O)(c1ccncc1)c1cc(-c2c[nH]c3ncc(-c4cnn(CC(=O)N5CCCCC5)c4)cc23)nc(N)n1 (centres unmarked)")
"Y"
>>> assigned_category("CCC(O)(c1cc[n+]([O-])cc1)c1cc(-c2c[nH]c3ncc(-c4cnn(C)c4)cc23)nc(N)n1 (centres unmarked)")
"N"
>>> assigned_category("CC(C)[C@@](O)(c1ccccc1)c1cc(-c2c[nH]c3ncc(-c4cnn(C)c4)cc23)nc(N)n1 (single isomer, unassigned)")
"Y"
>>> assigned_category("Cn1cc(-c2cnc3[nH]cc(-c4cc(C(C)(O)c5cccc(F)c5)nc(N)n4)c3c2F)cn1 (centres unmarked)")
"Y"
>>> assigned_category("CC(C)[C@](O)(c1ccccc1)c1cc(-c2c[nH]c3ncc(-c4cnn(C)c4)cc23)nc(N)n1 (single isomer, unassigned)")
"Y"

Record CCC[C@@](O)(c1cc(-c2c[nH]c3ncc(-c4cnn(C)c4)cc23)nc(N)n1)c1ccccc1F (single isomer, unassigned) ; criterion: pIC50 no lower than 6. Met?
Y

Entry CCCC(O)(c1cccc(F)c1)c1cc(-c2c[nH]c3ncc(-c4cnn(C)c4)cc23)nc(N)n1 (centres unmarked) : is its pIC50 no less than 6?
Y

I'd appreciate it if you could say whether COCO[C@](C)(c1ccncc1)c1cc(-c2c[nH]c3ncc(Br)cc23)nc(N)n1 (single isomer, unassigned) has pIC50 at least equal to 6.
N

Reported pIC50 at or above 6? Cn1cc(-c2cnc3[nH]cc(-c4cc(C(C)(O)c5ccccc5F)nc(N)n4)c3c2)cn1 (single isomer, unassigned)
Y

Please tell me: is the compound CCCC(O)(c1cc(-c2c[nH]c3ncc(-c4cnn(C)c4)cc23)nc(N)n1)c1ccccc1F (centres unmarked) at or over 6 in terms of pIC50?
Y

Is pIC50 for CC[C@](O)(c1ccccc1)c1cc(-c2c[nH]c3ncc(-c4cnn(CC(=O)N5CCCCC5)c4)cc23)nc(N)n1 (single isomer, unassigned) at or above 6?
Y

Evaluate CC[C@](O)(c1ccncc1)c1cc(-c2c[nH]c3ncc(-c4cnn(CC(=O)N5CCCCC5)c4)cc23)nc(N)n1 (single isomer, unassigned) : pIC50 at minimum 6?
Y

Determine whether measured pIC50 meets or exceeds 6 for CCC[C@](O)(c1ccncc1)c1cc(-c2c[nH]c3ncc(-c4cnn(C)c4)cc23)nc(N)n1 (single isomer, unassigned)
N
